Collected IC50, inhibition of IL-17 production from IL-23 stimulated mouse splenocytes values appear next to each entry.
Biological target: T1, recombinant human IL-23 (human, UniProt P29460 23-328)
T1 sequence 1: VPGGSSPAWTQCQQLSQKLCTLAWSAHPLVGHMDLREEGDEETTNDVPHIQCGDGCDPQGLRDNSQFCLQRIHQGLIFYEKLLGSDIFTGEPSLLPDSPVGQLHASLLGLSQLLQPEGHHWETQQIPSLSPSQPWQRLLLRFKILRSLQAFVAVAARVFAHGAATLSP
T1 sequence 2: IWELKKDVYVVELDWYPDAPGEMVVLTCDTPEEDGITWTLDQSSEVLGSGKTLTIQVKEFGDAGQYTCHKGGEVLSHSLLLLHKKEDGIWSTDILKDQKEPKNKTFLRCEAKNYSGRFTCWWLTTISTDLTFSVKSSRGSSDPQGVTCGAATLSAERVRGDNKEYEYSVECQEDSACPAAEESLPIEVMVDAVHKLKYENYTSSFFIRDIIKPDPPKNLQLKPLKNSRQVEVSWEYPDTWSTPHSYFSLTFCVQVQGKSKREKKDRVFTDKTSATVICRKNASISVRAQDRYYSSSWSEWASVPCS
Test: cell-based or functional assay
measurement_kind: IC50, inhibition of IL-17 production from IL-23 stimulated mouse splenocytes (pM)

>>> readout_number("73H10 (antibody, V domains shown) VH: EVQLQQSGPELVKPGASVKMSCKASGYTFTRYVMHWVKQKPGQGLEWIGYINPYNDVTKYNEKFKGKATLTSDRSSSTAYMKLSSLTSEDSAVYYCARNWDVPYWGQGTLITVSA VL: DIQMTQSPVFLSASVGETVTITCRASENIDSYLAWYQQKQGKSPQLLVFAARNLADGVPSRFSGSGSGTQYSLKINRMQSEDVARYYCQHYYSTPFTFGSGTKLEIE")
1410
>>> readout_number("18C4 (antibody, V domains shown) VH: EVQLQQSGPEVVKPGASVKMSCKASGYTFTSSVIHWVKQKAGQGLEWIGYINPYNDGTKYNEKFKGKATLTSDRSSSTAYMELSSLTSEDSAVYYCTRRLDEAYWGQGTLVTVSA VL: DIVMTQSPATLSVTPGDRVSLSCRASQSISEYLHWYQQKSHESPRLLIKYASQSISGIPSRFSGSGSGSDFTLSINSVEPEDVGVYYCQNGHSFPFTFGSGTKLEIK")
471
>>> readout_number("27G8 (antibody, V domains shown) VH: QVQLQQSDAELVKPGASVKISCKVSGYTFTDHTIHWMKQRPEQGLEWIGYIYPRDGYPKFNEKFKGKATLTADKSSSTAYMQLNSLTSEDSAVYFCARRPPYYAMDYWGQGTSVAVSS VL: DIVLTQSPASLAVSLGQRATISCRASKSVSTSGYSYIHWYQQKPGQPPKFLIYLASNLDSGVPARFSGSGSGTDFTLNIHPVEEEDAATYYCQHSRELPYTFGGGTKLEIK")
235
